ASSAY_EXPLANATION: Qualitative solubility in representative organic solvents
Format: physicochemical
TEST_PARAMETERS: ethanol, qualitative

[
  {
    "MOLECULE": "CN(C)CCC[Si](C)(C)O[Si-2]123(F)n4c5c6ccccc6c4N=C4c6ccccc6C(=[N+]41)N=c1c4ccccc4c(n12)=NC1=[N+]3C(=N5)c2ccccc21",
    "solubility in ethanol": "soluble"
  },
  {
    "MOLECULE": "CN(C)CCC[Si](C)(C)O[Si]1(O)n2c3c4ccccc4c2N=C2N=C(N=c4c5ccccc5c(n41)=NC1=NC(=N3)c3ccccc31)c1ccccc12.COC(=O)c1ccccc1C(=O)O (stereo not drawn)",
    "solubility in ethanol": "soluble"
  },
  {
    "MOLECULE": "CN(C)CCC[Si](C)(C)O[Si]1(O)n2c3c4ccccc4c2N=C2N=C(N=c4c5ccccc5c(n41)=NC1=NC(=N3)c3ccccc31)c1ccccc12.CP(C)(=O)O (stereo not drawn)",
    "solubility in ethanol": "soluble"
  }
]
